Target: human PTH1 receptor (Homo sapiens, UniProt Q03431)
Test: In vitro cAMP signal activity in HKRK-B7 cells (LLC-PK1 cells overexpressing the human PTH1 receptor)
Format: cell-based
Conditions: HKRK-B7 cells; compound at 1×10^−3 M; cAMP produced as percentage of that produced by hPTH(1-34) at 100 nM
Entries are grouped by cAMP production activity (%) into these classes: bucket 1: < 50%; bucket 2: ≥ 50% and < 80%; bucket 3: ≥ 80%

                                    compound  answerlabel
 0  O=C(NCCO)Nc1ccc(/C=C/S(=O)(=O)N2CCC3(CC2)N=C(C2CCCCC2)NC3=O)c(C(F)(F)F)c1     bucket 1
 1  Cc1cc(C2=NC3(CCN(S(=O)(=O)CCc4c(C)cc(C(=O)N5CCC(C)(O)CC5)cc4C)CC3)C(=O)N2)ccc1C(F)(F)F     bucket 3
 2  Cc1ccccc1C#CS(=O)(=O)N1CCC2(CC1)N=C(C1CCCCC1)NC2=O     bucket 1
 3  CCCCCCCCCC1=NC2(CCN(S(=O)(=O)CCc3ccc(C(=O)N4CCC4)cc3C)CC2)C(=O)N1     bucket 3
 4  O=C1NC(C2CCCCC2)=NC12CCN(S(=O)(=O)C#Cc1cccc3[nH]ccc13)CC2     bucket 1
 5  Cc1cc(C(=O)N2CCN(C(C)C)CC2)ccc1CCS(=O)(=O)N1CCC2(CC1)N=C(c1cccc(C(F)(F)F)c1)NC2=O     bucket 2
 6  Cc1cc(N(C)C(N)=O)cc(C)c1/C=C/S(=O)(=O)N1CCC2(CC1)N=C(CCCCCCCC(F)(F)C(F)(F)F)NC2=O     bucket 3
 7  CC1CCCCC1C1=NC2(CCN(S(=O)(=O)c3cccc(Cl)c3)CC2)C(=O)N1 (stereo not drawn)     bucket 1
 8  Cc1cc(C(=O)N2CCC(F)C2)ccc1CCS(=O)(=O)N1CCC2(CC1)N=C(c1cccc(C(F)(F)F)c1)NC2=O (stereo not drawn)     bucket 2
 9  CCCS(=O)(=O)CCCCCC1=NC2(CCN(S(=O)(=O)CCc3c(C)cc(N(C)C(N)=O)cc3C)CC2)C(=O)N1     bucket 1
10  COc1ccc(C2=NC3(CCN(S(=O)(=O)CCc4ccc(C(=O)N(C)C)cc4C)CC3)C(=O)N2)cc1C(F)(F)F     bucket 2
11  Cc1cc(N(C)C(N)=O)cc(C)c1CCS(=O)(=O)N1CCC2(CC1)N=C(C1(CCCC(F)(F)F)CC1)NC2=O     bucket 3
12  Cc1cc(N2C[C@H](CO)OC2=O)ccc1CCS(=O)(=O)N1CCC2(CC1)N=C(c1cccc(C(F)(F)F)c1)NC2=O     bucket 2
13  Cc1cc(C(=O)NN)cc(C)c1/C=C/S(=O)(=O)N1CCC2(CC1)N=C(C1CCC(CCC(F)(F)F)CC1)NC2=O (stereo not drawn)     bucket 3
14  O=C(CNc1ccc(CCS(=O)(=O)N2CCC3(CC2)N=C(C2CCCCC2)NC3=O)c(C(F)(F)F)c1)NCCCCO     bucket 2
15  Cc1cc(C(=O)N2CCCC2)ccc1/C=C/S(=O)(=O)N1CCC2(CC1)N=C(c1cccc(C(F)(F)F)c1F)NC2=O     bucket 2
16  CC(=O)Nc1ccc(CCS(=O)(=O)N2CCC3(CC2)N=C(C2CCC(CCCCF)CC2)NC3=O)c(C)c1 (stereo not drawn)     bucket 2
17  CC(=O)N(C)c1ccc(C)c(/C=C/S(=O)(=O)N2CCC3(CC2)N=C(c2cccc(OC(F)(F)F)c2)NC3=O)c1     bucket 1
18  Cc1cc(S(=O)(=O)Nc2cccnc2)ccc1/C=C/S(=O)(=O)N1CCC2(CC1)N=C(c1cccc(C(F)(F)F)c1)NC2=O     bucket 2
19  Cc1cc(CN)cc(C)c1/C=C/S(=O)(=O)N1CCC2(CC1)N=C(C1CCC(CCC(F)(F)F)CC1)NC2=O (stereo not drawn)     bucket 1
20  CC(=O)N(CCO)c1ccc(-c2ccc(S(=O)(=O)N3CCC4(CC3)N=C(c3ccc(F)c(C(F)(F)F)c3)NC4=O)s2)c(C)c1     bucket 3
21  Cc1cc(N2CCOCC2=O)ccc1/C=C/S(=O)(=O)N1CCC2(CC1)N=C(c1cccc(OC(F)(F)F)c1)NC2=O     bucket 3
22  O=C1Cc2c(/C=C/S(=O)(=O)N3CCC4(CC3)N=C(C3CCCCC3)NC4=O)cccc2N1     bucket 1
23  Cc1cc(N(C(N)=O)C2CCCC2)ccc1/C=C/S(=O)(=O)N1CCC2(CC1)N=C(c1cccc(OC(F)(F)F)c1)NC2=O     bucket 2
24  COCc1cc(NC(C)=O)ccc1CCS(=O)(=O)N1CCC2(CC1)N=C(C1CCC(C)CC1)NC2=O (stereo not drawn)     bucket 3

* * *

Molecular target: human PTH1 receptor (Homo sapiens, UniProt Q03431)
Sequence (Q03431 27-593): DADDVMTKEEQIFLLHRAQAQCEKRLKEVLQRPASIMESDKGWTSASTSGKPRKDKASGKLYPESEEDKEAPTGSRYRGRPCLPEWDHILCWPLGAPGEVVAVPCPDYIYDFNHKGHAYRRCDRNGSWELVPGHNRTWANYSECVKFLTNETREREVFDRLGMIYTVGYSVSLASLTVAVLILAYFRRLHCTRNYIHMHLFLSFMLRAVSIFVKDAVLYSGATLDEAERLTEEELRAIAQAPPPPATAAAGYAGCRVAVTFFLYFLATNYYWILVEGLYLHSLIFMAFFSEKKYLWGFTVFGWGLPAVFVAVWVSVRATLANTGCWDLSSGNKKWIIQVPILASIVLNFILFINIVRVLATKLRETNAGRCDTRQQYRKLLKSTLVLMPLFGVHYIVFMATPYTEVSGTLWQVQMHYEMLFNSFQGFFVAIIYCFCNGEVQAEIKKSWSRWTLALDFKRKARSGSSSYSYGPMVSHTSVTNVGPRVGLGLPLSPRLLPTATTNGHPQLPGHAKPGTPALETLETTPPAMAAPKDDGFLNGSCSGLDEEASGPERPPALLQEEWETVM
Test: In vitro cAMP signal activity in HKRK-B7 cells (LLC-PK1 cells overexpressing the human PTH1 receptor)
Format: cell-based
Settings: HKRK-B7 cells; compound at 1×10^−3 M; cAMP produced as percentage of that produced by hPTH(1-34) at 100 nM
Parameter cAMP production activity (%): see the listing below.
metricName: cAMP production activity (%)

                                   compound                    metricname  displayunit  reported
0  Cc1cc(C(=O)N2CCN(C)CC2)cc(C)c1CCS(=O)(=O)N1CCC2(CC1)N=C(C1CCC(CCC(F)(F)F)CC1)NC2=O (stereo not drawn)  cAMP production activity (%)            %        98
1  Cc1cc(N2COCC2=O)ccc1/C=C/S(=O)(=O)N1CCC2(CC1)N=C(C1CCC(C)CC1)NC2=O (stereo not drawn)  cAMP production activity (%)            %        74
2  Cc1cc(N(C)C(N)=O)cc(C)c1/C=C/[S@TB4](=O)(=O)N1CCC2(CC1)N=C(c1cccc(CCCC(F)(F)F)c1)NC2=O  cAMP production activity (%)            %        99
3  Cc1cc(S(=O)(=O)NC[C@@H](O)CO)ccc1CCS(=O)(=O)N1CCC2(CC1)N=C(c1cccc(OC(F)(F)F)c1)NC2=O  cAMP production activity (%)            %        83
4  Cc1cc2ccc1CCS(=O)(=O)N1CCC3(CC1)N=C(NC3=O)c1cc(cc(C(F)(F)F)c1)OCCC(O)C(O)CCCN(C)C2=O (stereo not drawn)  cAMP production activity (%)            %        13
5  Cc1cc(C(=O)N(C)C)ccc1CCS(=O)(=O)N1CCC2(CC1)N=C(C1CCC(F)(F)CC1)NC2=O  cAMP production activity (%)            %        61

* * *

Target: human PTH1 receptor (Homo sapiens)
Test: In vitro cAMP signal activity in HKRK-B7 cells (LLC-PK1 cells overexpressing the human PTH1 receptor)
Assay type: cell-based
Settings: HKRK-B7 cells; compound at 1×10^−3 M; cAMP produced as percentage of that produced by hPTH(1-34) at 100 nM
Kindly return Yes if reported cAMP production activity (%) is no lower than 80%; return No if it is lower.

In [3]: df
Out[3]:
                                   compound  answerlabel
0  Cc1cc(C(=O)N(C)C)ccc1CCS(=O)(=O)N1CCC2(CC1)N=C(C(C)(C)C)NC2=O [Compound 74]           No
1  CC(C)(C)COC(=O)N1CCCC(C2=NC3(CCN(S(=O)(=O)CCc4cccc5ccccc45)CC3)C(=O)N2)C1 (stereo not shown) [Compound 465]           No
2  Cc1cc(C(=O)N(C)C)ccc1CCS(=O)(=O)N1CCC2(CC1)N=C(c1ccc(Cl)c(Cl)c1)NC2=O [Compound 98]           No
3  CCCc1ccc(-c2cccc(C3=NC4(CCN(S(=O)(=O)CCc5c(C)cc(N(C)C(N)=O)cc5C)CC4)C(=O)N3)c2)cc1 [Compound 1152]           No
4  O=C(NCCO)Nc1ccc(CCS(=O)(=O)N2CCC3(CC2)N=C(C2CCCCC2)NC3=O)c(C(F)(F)F)c1 [Compound 278]           No
5  CC(=O)Nc1ccc(CCS(=O)(=O)N2CCC3(CC2)N=C(C2CC(C)(C)CC(C)(C)C2)NC3=O)c(C)c1 [Compound 926]          Yes
6  CC(=O)N[C@@H]1CCN(C(=O)c2ccc(CCS(=O)(=O)N3CCC4(CC3)N=C(c3cccc(C(F)(F)F)c3)NC4=O)c(C)c2)C1 [Compound 353]          Yes
